systemUnderTest: Metabotropic glutamate receptor 2 (Homo sapiens, UniProt Q14416)
Sequence (Q14416 whole entry): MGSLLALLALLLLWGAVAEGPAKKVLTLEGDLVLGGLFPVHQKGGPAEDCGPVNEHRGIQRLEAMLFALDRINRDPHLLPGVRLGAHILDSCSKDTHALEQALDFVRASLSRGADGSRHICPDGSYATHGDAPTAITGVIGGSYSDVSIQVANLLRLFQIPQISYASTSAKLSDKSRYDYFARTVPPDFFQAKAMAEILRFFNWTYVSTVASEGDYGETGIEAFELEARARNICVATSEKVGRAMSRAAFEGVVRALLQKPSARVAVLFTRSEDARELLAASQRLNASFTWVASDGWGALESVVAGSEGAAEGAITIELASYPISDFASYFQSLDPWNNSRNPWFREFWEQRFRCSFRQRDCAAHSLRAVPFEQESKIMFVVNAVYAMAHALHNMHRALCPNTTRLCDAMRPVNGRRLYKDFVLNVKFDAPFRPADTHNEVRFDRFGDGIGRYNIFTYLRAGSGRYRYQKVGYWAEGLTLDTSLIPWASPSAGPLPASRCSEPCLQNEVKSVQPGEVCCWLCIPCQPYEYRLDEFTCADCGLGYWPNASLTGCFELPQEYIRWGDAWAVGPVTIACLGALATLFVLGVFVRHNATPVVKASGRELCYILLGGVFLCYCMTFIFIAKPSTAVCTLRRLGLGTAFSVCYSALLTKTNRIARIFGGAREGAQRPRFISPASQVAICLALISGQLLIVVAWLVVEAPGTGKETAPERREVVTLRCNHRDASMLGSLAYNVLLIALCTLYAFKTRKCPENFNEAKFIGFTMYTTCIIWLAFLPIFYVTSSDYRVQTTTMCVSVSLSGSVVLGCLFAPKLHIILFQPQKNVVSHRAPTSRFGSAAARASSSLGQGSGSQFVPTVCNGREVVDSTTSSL
assayInfo: Positive allosteric modulation of human metabotropic glutamate receptor 2 expressed in CHOK1 cell membranes assessed as increase in glutamate-induced [35S]GTPgammaS binding preincubated for 30 mins followed by [35S]GTPgammaS addition measured after 30 mins by Topcount scintillation counting method
Type: functional
endpoint: pEC50
FYI, pEC50 means -log10 of a concentration in mol per litre.

{"smilesInput": "O[C@]1(C2CC2)CC[C@H](Nc2ccc(-c3ccn4c(CC5CC5)nnc4c3C(F)(F)F)cc2Cl)CC1", "pEC50": 8.95}
{"smilesInput": "Clc1cc(-c2ccn3c(CC4CC4)nnc3c2Cl)ccc1NC1CCOCC1", "pEC50": 6.83}
{"smilesInput": "Fc1cc(-c2ccn3c(CC4CC4)nnc3c2Cl)ccc1Oc1ccnc(C2CC2)c1", "pEC50": 7.06}
{"smilesInput": "COc1ccc(CNc2ccc(-c3ccn4c(CC5CC5)nnc4c3C(F)(F)F)cc2)cn1", "pEC50": 7.82}
{"smilesInput": "Cc1ccc(Oc2ccc(-c3ccn4c(CC5CC5)nnc4c3C(F)(F)F)cc2F)c(C)n1", "pEC50": 8.06}

pEC50 reading for FC(F)(F)c1c(-c2ccc(OC3CCOCC3)c(Cl)c2)ccn2c(CC3CC3)nnc12 : 7.42

Consider O[C@H]1CC[C@H](Oc2ccc(-c3ccn4c(CC5CC5)nnc4c3C(F)(F)F)cc2Cl)CC1 . Its measured pEC50 is 7.60

Per the record, Cc1ccc(Oc2ccc(-c3ccn4c(CC5CC5)nnc4c3C(F)(F)F)cc2Cl)c(C)n1 has pEC50 of 8.54

Record FC(F)(F)c1c(-c2ccc(NC3CCOCC3)c(Cl)c2)ccn2c(CC3CC3)nnc12 . Reported pEC50: 7.73

pEC50 measured on FC(F)(F)c1c(-c2ccc(CNC3CCOCC3)c(Cl)c2)ccn2c(CC3CC3)nnc12 = 6.20

###

systemUnderTest: Metabotropic glutamate receptor 1 (Homo sapiens)
assayInfo: Antagonist activity at human metabotropic glutamate receptor 1 expressed in HEK293 cells assessed as inhibition of glutamate-induced Ca2+ internalization after 1 hr by fluo-4-AM dye based fluorescence assay
Format: functional, cell-based
Activity calls are given as the source filed them. No cut-off for these calls is given here.

{"smilesInput": "Cc1ccc(Oc2ccc(-c3ccn4c(CC5CC5)nnc4c3Cl)cc2Cl)c(C)n1", "systemUnderTest": "Metabotropic glutamate receptor 1 (Homo sapiens)", "inhibition": "inactive"}
{"smilesInput": "O[C@H]1CC[C@H](Nc2ccc(-c3ccn4c(CC(F)(F)F)nnc4c3Cl)cc2Cl)CC1", "systemUnderTest": "Metabotropic glutamate receptor 1 (Homo sapiens)", "inhibition": "inactive"}
{"smilesInput": "FC(F)(F)c1c(-c2ccc(OC3CCOCC3)c(Cl)c2)ccn2c(CC3CC3)nnc12", "systemUnderTest": "Metabotropic glutamate receptor 1 (Homo sapiens)", "inhibition": "inactive"}
{"smilesInput": "Fc1cc(-c2ccn3c(CC4CC4)nnc3c2Cl)ccc1NC1CC1", "systemUnderTest": "Metabotropic glutamate receptor 1 (Homo sapiens)", "inhibition": "inactive"}

###

systemUnderTest: UniProtKB Q14416
assayInfo: Positive allosteric modulation of human metabotropic glutamate receptor 2 expressed in CHOK1 cells assessed as cellular impedance measured for 20 mins with 15 sec time interval followed by 40 mins with 5 mins time interval and subsequently measured with 15 mins time interval in presence of endogenous glutamate levels by RTCA
Assay type: cell-based
Each entry below carries its recorded pEC50.
pEC50 (log units): -log10 of the concentration in mol/L.

Previously resolved entries follow.
{"smilesInput": "O[C@]1(C2CC2)CC[C@H](Nc2ccc(-c3ccn4c(CC5CC5)nnc4c3C(F)(F)F)cc2Cl)CC1", "pEC50": 7.95}
{"smilesInput": "FC(F)(F)c1c(-c2ccc(NC3CCOCC3)c(Cl)c2)ccn2c(CC3CC3)nnc12", "pEC50": 7.73}

Input FC(F)(F)c1c(-c2ccc(OC3CCOCC3)c(Cl)c2)ccn2c(CC3CC3)nnc12 . Output pEC50: 7.05
